src = paper PMC8360000

- System: P-gp
- assay-overview: IVIVE of Kp,uu,brain from in vitro ER using REF
- Design: species or system human
- measurement-context: human, brain (unbound, Kp,uu)
measured-endpoint: Kp uu
Response field accepts a number only; no unit should be typed.

Query: Query Kp uu for CCN(CC)CCNC(=O)c1cc(Cl)c(N)cc1OC [Metoclopramide, metoclopramide]
Reply: 1.3
